Reference source for all entries: patent US20200247855A1

Target: CCL2_HUMAN (Homo sapiens, UniProt P13500)
Sequence (P13500 24-99): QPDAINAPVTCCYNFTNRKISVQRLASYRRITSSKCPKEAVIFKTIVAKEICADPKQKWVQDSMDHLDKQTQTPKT
Assay: Biolayer interferometry (BLI) binding
Let's look at some molecules and their measured pKd.
Keep in mind that pKd stands for -log10 of concentration in molar terms.

>  <molecule>
P672_RHIPU: tick CKBP, Rhipicephalus pulchellus (protein, listed as Rhipicephalus pulchellus) VCEVSEQEGVGEDNATEDEDYEDFFKPVTCYFANSTVGPLRPPNCTVVCTNNTAWWNDTKSDGGHCYSEYRPEKRTHSREIYNCTIGVCGNGTCIANHTYADCW

>  <pKd>
8.04

$$$$
>  <molecule>
P1183_AMBTR: tick CKBP, Amblyomma triste (protein, Amblyomma triste) EAPKDDFEYDGGCPFVVLDNGTHVKPAGCSHLCNGAPETLDNIECYNVTEEVAKRMTPGIPYACWLGWCSKGECKRDNRTEVCYRGSEEE

>  <pKd>
7.92

$$$$

Now let's try a different one.
Determine its reported pKd: P983_AMBPA: tick CKBP; named P983_AMBCA in Table 1 (protein, Amblyomma cajennense) EDTGTEDDFDYGNTGCPFPVLGNYKSNMTKPVGCKNKCGSGYEVLNDTTPCYVIDQKVFNNMVPLRQYSKCPLGFCENGECKPNDQAEDCYKGREEQK
7.85
